System: HCT-15 colon
Assay: NCI tumour cell line growth inhibition, 48 h; in the data active = GI50 below about 0.43 µM; inactive = the rest
Outcomes: active, inactive

[
  {
    "MOLECULE": "CC(C)(C)C(=O)OCc1nc2cc3c(cc2c(=O)[nH]1)CCC3=O",
    "TESTED_TARGET": "HCT-15 colon",
    "CLASSIFICATION": "inactive"
  },
  {
    "MOLECULE": "C#Cc1cc2c(N)c(C(=O)c3cc(OC)c(OC)c(OC)c3)[nH]c2cc1OC",
    "TESTED_TARGET": "HCT-15 colon",
    "CLASSIFICATION": "inactive"
  },
  {
    "MOLECULE": "COc1cc2c(cc1OC)-c1ncc3cc4c(cc3c1C2)OCO4",
    "TESTED_TARGET": "HCT-15 colon",
    "CLASSIFICATION": "inactive"
  },
  {
    "MOLECULE": "C1C[OH+]CC[OH+]CC[OH+]CC[OH+]CC[OH+]CC[OH+]1.[Cl-].[Nb+5]",
    "TESTED_TARGET": "HCT-15 colon",
    "CLASSIFICATION": "inactive"
  },
  {
    "MOLECULE": "c1ccc2nc(OCCN3CC3)ccc2c1",
    "TESTED_TARGET": "HCT-15 colon",
    "CLASSIFICATION": "inactive"
  },
  {
    "MOLECULE": "Oc1ccc(Cl)cc1-c1cc(-c2ccc(F)cc2)n[nH]1",
    "TESTED_TARGET": "HCT-15 colon",
    "CLASSIFICATION": "active"
  },
  {
    "MOLECULE": "Cc1cc(S(=O)(=O)Nc2nc3cc(Cl)ccc3o2)c(SCc2ccccc2)cc1Cl",
    "TESTED_TARGET": "HCT-15 colon",
    "CLASSIFICATION": "inactive"
  },
  {
    "MOLECULE": "CC(=O)C1(O)Cc2c(O)c3c(c(O)c2C(OC2CC(N)C(O)C(C)O2)C1)C(=O)c1ccccc1C3=O (stereo not given)",
    "TESTED_TARGET": "HCT-15 colon",
    "CLASSIFICATION": "active"
  },
  {
    "MOLECULE": "Oc1c(CN2CCOCC2)cc(COCc2ccccc2)c2cccnc12",
    "TESTED_TARGET": "HCT-15 colon",
    "CLASSIFICATION": "active"
  },
  {
    "MOLECULE": "O=C(NCCCCOCC#Cc1ccccc1C#CCS(=O)(=O)c1ccccc1)c1cc2ccccc2[nH]1",
    "TESTED_TARGET": "HCT-15 colon",
    "CLASSIFICATION": "inactive"
  }
]
